Experiment: protein stability index of a GFP-peptide fusion (GPS, HEK-293T) (PSI 1-6); higher = more stable;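 further: 24-mer peptide tiles fused after GFP, lentivirally expressed, FACS-sorted into six equal bins by GFP/DsRed ratio, decoded by Illumina sequencing, PSI is the read-weighted mean bin number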
Conditions: treatment: DMSO; c terminus: a fixed tail appended

sequenceData | protein stability index
SSCYPLIPSTPEEVSADDETPNPP [MAGEA10] | 5.46
MGRKKKKQLKPWCWYCNRDFDDEK [ZNF207] | 2.39
YKGELFDKTPVLLTDYPVDLDEIA [MYORG] | 3.73
DFNLCLFYLPSSPNLSLASEDEEE [SMG5] | 2.85
QLDWDELETNQQHFHALCHSLLVS [M1AP] | 2.3
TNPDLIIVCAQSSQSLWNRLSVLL [SMG5] | 2.59
EQDMERRKADFKAGKALVISGREV [ZC3H15] | 4.8
